- Test system: SF-268 CNS
- run.description: NCI-60 one-dose screen, 48 h (100 = growth as untreated, 0 = no growth, -100 = all killed)
- assay.context: 10 µM unless noted
The panel holds about 83,000 compounds, 20% with a hit somewhere; the sample as a whole holds those more often.
So I've got a bunch of compounds here, and I need their growth values.
Answers are plain numbers, in %.

The examples below pair each entry with its known result.
N#Cc1nn(-c2cc(=O)[nH]c3ccc(Cl)cc23)c(N)c1C#N    113
Cc1ccc2c(n1)C(=O)c1[nH]c3ccccc3c1C2=O    66.3
CC1(C)c2[nH]c3ccccc3c2C[C@]2(C)[C@H]3CC=C4[C@@H]5C[C@@](C)(C(N)=O)CC[C@]5(C)CC[C@@]4(C)[C@]3(C)CC[C@@H]12    73.2
COc1cccc(/C=C/C(=O)c2cc3c(N)c(C(=O)Nc4ccccc4)sc3nc2C)c1    18.2

Attention now shifts to the item below.
Entry CCN(CC)CCSc1nc(-c2ccccc2)c(C#N)c(=O)[nH]1 — recorded growth = 102
